In this section we review reported composite z-score values for a set of compounds.
- Assay remarks: COS7 lysate on small-molecule microarray, probe aHis, 635 nm (AID 1123);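 also: z-score combines 667nm fluorescence intensity with signal-to-noise per printed compound spot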
- Details: COS7 cell lysate, fluorescence, higher = more signal

| Compound | composite z-score |
| --- | --- |
| CCN(CC)CC(O)CN1CCCCc2nc(C)c(C)cc21 (stereo not given) | 0.243 |
| COc1ccc(OC[C@@H]2CC3[C@@H](c4ccc(Br)cc4)[C@H](C)CC[C@H]3C(=O)O2)cc1 (stereo not given in full) | -0.037 |
| CCOC(=O)[C@H](CC(C)C)NC(=O)CCC1CC(OC(=O)NCCc2ccc(F)cc2)CC2(CCCC(COC(=O)NCc3cccc4ccccc34)O2)O1 (stereo not given in full) | 0.96 |
| CCOC(=O)[C@H](CC(C)C)NC(=O)CCC1CC(OC(=O)NCc2ccc3c(c2)OCO3)CC2(CCCC(COC(=O)NCCc3ccccc3OC)O2)O1 (stereo not given in full) | 0.754 |
| CO[C@H]1COC(=O)CCC[C@H](C)[C@@H](OC)COC(=O)CC=C[C@@H]1C | -0.378 |

----------
- Assay remarks: small-molecule microarray binders of probe aWnt5a, primary screen, biochemical, biotinylated probe, 635/667 nm fluorescence (AID 1113);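 also: score merges 667 nm fluorescence intensity with signal-to-noise per printed feature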
- Details: higher = more signal
In this section we review reported composite z-score values for a set of molecules.
Reported metric: composite z-score

| Smiles entry | Observed result |
| --- | --- |
| CCO[C@H](c1cc(OC)cc([N+](=O)[O-])c1OC)[C@H](C)[C@@H](OC)[C@H](C)C=CCC(=O)OC | -0.0383 |
| CCOC(=O)CCN1C(=O)[C@H]2[C@H]3[C@H](O)[C@H](O)CC(=O)[C@@H]3CC[C@H]2C1=O | -0.0924 |
| O=C1[C@H]2[C@H]3[C@H](O)[C@H](O)CC(=NO[C@@H]4O[C@H](CO)[C@@H](O)[C@H](O)[C@H]4O)[C@H]3CC[C@H]2C(=O)N1c1ccc(F)cc1F | -0.0088 |
| OC[C@H]1O[C@H](C#Cc2ccccc2)C=C[C@@H]1O | 0.0251 |
| CCN1C(=O)[C@H]2[C@H]3[C@H](O)[C@H](O)CC(=NO[C@H](C)c4cn([C@@H]5COC[C@H]5O)nn4)[C@@H]3CC[C@H]2C1=O | -0.0445 |
| C[C@@H]1CC[C@@H](C(=O)O)N[C@H]1c1cccc(N2CCOCC2)c1 | -0.0758 |
| CC(C)(C)N1C(=O)[C@H]2[C@H]3[C@H](O)[C@H](O)CC(=NOC[C@@H](O)COCc4ccco4)[C@@H]3CC[C@H]2C1=O | -0.0685 |
| CCCC[C@H]1CN2[C@@H](CC[C@@H](C)[C@@H]2c2ccc(Br)cc2)C(=O)O1 | -0.158 |

----------
- Assay remarks: binders of probe aFSTL3 on microarray, primary screen, stem cell growth factor project, biochemical, small-molecule microarray, fluorescence 635/667 (AID 1064);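 also: measures binding of the biotinylated anti-FSTL3 antibody to printed compounds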
- Details: higher = more signal
In this section we review reported composite z-score values for a set of compounds.
Reported metric: composite z-score

| Compound | Reported metric | Observed result |
| --- | --- | --- |
| CCOC(=O)[C@H](Cc1ccccc1)NC(=O)CCC1CC(OC(=O)NCc2ccc3c(c2)OCO3)CC2(CCCC(COC(=O)NCCc3ccc(Cl)cc3)O2)O1 (stereo partly specified) | composite z-score | -0.415 |
| C#CCCCON=C1C[C@@H](O)[C@@H](O)[C@@H]2[C@@H]3C(=O)N(C4CCCCC4)C(=O)[C@@H]3CC[C@@H]12 | composite z-score | 0.835 |
| COC(=O)[C@@H]1CC[C@H](C)[C@@H](c2ccc(C)cc2)N1C(=O)c1ccc(C=NOC[C@H]2O[C@H](c3ccccc3)C=C[C@@H]2Oc2ccc(OC)cc2)cc1 | composite z-score | -0.462 |
| COc1ccc(COC(=O)NN=C2C[C@@H](O)[C@@H](O)[C@@H]3[C@@H]4C(=O)N(c5cccc(Oc6ccccc6)c5)C(=O)[C@@H]4CC[C@H]23)cc1 | composite z-score | 0.937 |
| CC(C)=NOC[C@@H](O)[C@H]1O[C@@H]2OC(C)(C)O[C@@H]2[C@H]1O | composite z-score | -0.732 |
| CC(C)[C@@H](OCc1ccccc1)[C@H](C)C=NO[C@H](C)c1cn([C@@H]2COC[C@H]2O)nn1 | composite z-score | -0.478 |
| CC(C)=CCCC(C)=CCON=C1C[C@@H](O)[C@@H](O)[C@@H]2[C@@H]3C(=O)N(c4cccc(Oc5ccccc5)c4)C(=O)[C@@H]3CC[C@H]12 | composite z-score | -0.304 |
| COc1ccc(O[C@H]2C=C[C@@H](C#Cc3ccccc3)O[C@@H]2CO)cc1 | composite z-score | -0.213 |
| CC(C)=CCCC(C)=CCON=C1C[C@@H](O)[C@@H](O)[C@@H]2[C@@H]3C(=O)N(C4CCCCC4)C(=O)[C@@H]3CC[C@H]12 | composite z-score | -0.317 |
| C#CCCCON=C1[C@H]2CCn3c(=O)n(Cc4cc5c(cc4Cl)OCO5)c(=O)n3[C@H]2[C@H](O)[C@@H]2O[C@H]12 | composite z-score | -0.652 |
| CCOC(=O)[C@H](CC(C)C)NC(=O)CCC1CC(OC(=O)NCc2ccc3c(c2)OCO3)CC2(CCCC(COC(=O)NCCc3ccccc3OC)O2)O1 (stereo partly specified) | composite z-score | -0.693 |

Entry source: PubChem BioAssay
